system: U251 CNS; experiment: NCI-60 one-dose screen, 48 h; conditions: 10 µM unless noted
About 83,000 compounds went through this panel and 20% of them were active in at least one assay; those are over-represented in the sample as a whole. Calls of active or inactive are those of the source. The calls were made as follows: active = growth percent below 10; inactive = the rest.
Allowed answers: active, inactive

Problem: # outcome recorded in this test, key = "CCOc1ccc(C(C)=O)cc1NC(=O)c1cccc(-c2nnn(CC)n2)c1"
Result: inactive

Problem: Recorded test outcome, item "CC1=C[C@H]2c3c(c(O)c(O)c4oc5ccccc5c(=O)c34)[C@H](c3cc(O)c(O)c4oc5ccccc5c(=O)c34)[C@H]2C(C)(C)C1"
Result: active

Problem: Would you mind telling me which call this test gave "O=C1c2cc3c(cc2-c2c1c1ccc(F)cc1c(=O)n2C[C@H](O)[C@@H](O)[C@H](O)CO)OCO3" ?
Result: active

Problem: What is the recorded call for this molecule in the test? "Cc1cc2nc(NC(=O)CN3CCN(CCN4C(=O)c5cccc6cccc(c56)C4=O)CC3)sc2cc1C"
Result: inactive

Problem: Field: outcome | Entry: "COc1cc(Nc2cc(C)nc(N3CCN(c4ccnc5cc(Cl)ccc45)CC3)n2)cc(OC)c1"
Result: active

Problem: Look up the recorded call for "CN(C)c1ccc(NC(=O)c2ccc(/C=C/C(=O)c3ncc[nH]3)cc2)cc1" in this test.
Result: inactive

Problem: Recorded call for "CC1=CC(C)(C)Nc2ccc(Cc3ccc4c(c3)C(C)=CC(C)(C)N4)cc21" ?
Result: inactive

Problem: Which outcome did this test record for the molecule "Cc1ccc(NC(=O)/C=C/c2ccccc2)c(C(N)=O)c1" ?
Result: inactive

Problem: Just curious, what result did Cc1ccc2c(C(C[N+](=O)[O-])c3ccccc3)c(-c3ccccc3)[nH]c2c1 (stereo not given) get here?
Result: inactive

Problem: For "C=C1C(=O)O[C@H]2[C@H]1CC/C(COC(=O)NCc1ccc(OC)c(OC)c1)=C\CC[C@@]1(C)O[C@@H]21" , which call appears in the assay record?
Result: inactive
